Recorded IC50 values (CCXCKR2 (CXCR7) (Homo sapiens, UniProt P25106)) are given below.

These solved cases illustrate the format of a correct answer.
COc1ccc2c(c1)c1c(cnn1CC(=O)NCCN1CCCC3CCCCC31)c(=O)n2C (stereo not drawn): < 1000 nM
COc1ccc2oc(=O)c3cnn(CC(=O)NCCN(C)C4CCCCC4)c3c2c1: < 1000 nM

Then this compound:
Report value: IC50, system: CCXCKR2 (CXCR7) (Homo sapiens, UniProt P25106), compound: COc1ccc2c(c1)c1c(cnn1CC(=O)NCCN(C)C1CCCCCCC1)c(=O)n2C
Sequence (P25106 whole entry): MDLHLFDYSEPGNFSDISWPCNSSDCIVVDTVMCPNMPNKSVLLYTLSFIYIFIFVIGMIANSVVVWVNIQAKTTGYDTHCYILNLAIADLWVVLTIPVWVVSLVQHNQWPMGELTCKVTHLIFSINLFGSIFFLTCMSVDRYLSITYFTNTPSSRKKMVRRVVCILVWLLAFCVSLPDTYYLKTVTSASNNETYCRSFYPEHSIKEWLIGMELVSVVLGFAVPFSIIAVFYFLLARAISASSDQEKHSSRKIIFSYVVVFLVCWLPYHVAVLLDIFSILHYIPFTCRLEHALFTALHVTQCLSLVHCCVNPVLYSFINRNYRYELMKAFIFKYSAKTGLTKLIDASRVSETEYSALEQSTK
< 1000 nM

----------
TARGET ENTITY: CXCR4 (Homo sapiens, UniProt P61073)
Construct: endogenous in cells; IL-2 stimulated lymphocytes from human blood
Sequence (P61073 whole entry): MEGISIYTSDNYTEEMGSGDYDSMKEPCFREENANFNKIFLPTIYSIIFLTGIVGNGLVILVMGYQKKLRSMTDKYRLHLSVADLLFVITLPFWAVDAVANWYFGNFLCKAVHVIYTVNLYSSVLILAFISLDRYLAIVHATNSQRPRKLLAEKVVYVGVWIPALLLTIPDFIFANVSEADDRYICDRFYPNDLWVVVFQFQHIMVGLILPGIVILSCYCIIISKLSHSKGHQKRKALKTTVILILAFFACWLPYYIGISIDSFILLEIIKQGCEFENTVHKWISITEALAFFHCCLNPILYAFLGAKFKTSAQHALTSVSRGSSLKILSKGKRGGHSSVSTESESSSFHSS
TEST METHOD NOTES: Inhibition of SDF-1 ligand binding or chemotaxis assay for CXCR4
PARTICULARS: first (or only) activity listed in CXCR4/CXCR7; chemotaxis assay or binding assays
pIC50: −log10 of the molar value.
Below: a set of entries, each annotated with reported pIC50.

These solved cases illustrate the format of a correct answer.
Cc1ccc2c(c1)c1c(cnn1CC(=O)NCCN(C)C1CCCCC1)c(=O)n2C [Compound 8]: 5.00 to 6.00
COc1ccc2c(c1)-c1c(cnn1CC(=O)NCCN(C)C1CCCC1)CO2 [Compound 20]: 5.00 to 6.00
Cc1cc2c(cc1Cl)-c1c(cnn1CC(=O)NCCN(C)C1CCCCC1)CO2 [Compound 23]: < 5.00

Then this molecule:
Look up and state reported pIC50 for COc1ccc2c(c1)c1c(cnn1CC(=O)NCCN(C)C1CCCCCCC1)c(=O)n2C [Compound 32]
5.00 to 6.00

----------
TARGET ENTITY: CXCR4 (Homo sapiens, UniProt P61073)
Construct: endogenous in cells; IL-2 stimulated lymphocytes from human blood
TEST METHOD NOTES: Inhibition of SDF-1 ligand binding or chemotaxis assay for CXCR4
PARTICULARS: first (or only) activity listed in CXCR4/CXCR7; chemotaxis assay or binding assays
Below: a set of entries, each annotated with reported IC50.

These solved cases illustrate the format of a correct answer.
CN(CCNC(=O)Cn1ncc2c1-c1cc(Cl)ccc1OC2)C1CCCCC1: > 10000 nM
COc1ccc2c(c1)-c1c(cnn1C(=O)NCCN1CCC[C@@H]3CCCC[C@@H]31)CO2: 1000 to 10000 nM
COc1ccc2c(c1)c1c(cnn1CC(=O)NCCN1CC[C@@H]3CCCC[C@H]3C1)c(=O)n2C: < 1000 nM
COc1ccc2c(c1)c1c(cnn1CC(=O)NCCCN(C)C1CCCCC1)c(=O)n2C: < 1000 nM
COc1nc2ccc(C)cc2c2c1cnn2CC(=O)NCCN(C)C1CCCCC1: 1000 to 10000 nM

Look up and state reported IC50 for COc1ccc2c(c1)c1c(cnn1CC(=O)NCCN1CCCC3CCCCC31)c(=O)n2C (centres unmarked)
< 1000 nM

----------
TARGET ENTITY: CXCR4 (Homo sapiens)
Construct: endogenous in cells; IL-2 stimulated lymphocytes from human blood
TEST METHOD NOTES: Inhibition of SDF-1 ligand binding or chemotaxis assay for CXCR4
PARTICULARS: first (or only) activity listed in CXCR4/CXCR7; chemotaxis assay or binding assays
RECORDED ENDPOINT: IC50

These solved cases illustrate the format of a correct answer.
CN(CCNC(=O)Cn1ncc2c1-c1ccccc1CC2)C1CCCCC1 [Compound 6]: 1000 to 10000 nM
COc1nc2cnn(CC(=O)NCCN(C)C3CCCCC3)c2c2ccccc12 [Compound 11]: 1000 to 10000 nM
CCn1c(=O)c2cnn(CC(=O)NCCN(C)C3CCCCC3)c2c2cc(OC)ccc21 [Compound 33]: < 1000 nM
COc1ccc2c(c1)c1c(cnn1CC(=O)NCCN(C)C1CCCCC1)c(=O)n2C [Compound 30]: 1000 to 10000 nM
COc1ccc2c(c1)c1c(cnn1C(C)C(=O)NCCN(C)C1CCCCC1)c(=O)n2C (centres unmarked) [Compound 15]: 1000 to 10000 nM
COc1ccc2nc(OC)c3cnn(CC(=O)NCCN(C)C4CCCCC4)c3c2c1 [Compound 9]: < 1000 nM
COc1ccc2c(c1)c1c(cnn1CC(=O)NCC1CCCN(C3CCCCC3)C1)c(=O)n2C (centres unmarked) [Compound 17]: > 10000 nM
COc1ccc2c(c1)c1c(cnn1CC(=O)NCCN(C)C1CCOCC1)c(=O)n2C [Compound 18]: > 10000 nM
COc1ccc2c(c1)c1c(cnn1C(C)C(=O)NCCCN(C)C1CCCCC1)c(=O)n2C (centres unmarked) [Compound 38]: 1000 to 10000 nM
COc1ccc2c(c1)-c1c(cnn1CC(=O)NCCN(C1CCCCC1)C1CCCCC1)CO2 [Compound 7]: 1000 to 10000 nM

Then this molecule:
Look up and state reported IC50 for CCN(CCCNC(=O)Cn1ncc2c(=O)n(C)c3ccc(OC)cc3c21)C1CCCCC1 [Compound 37]
< 1000 nM
